Biological target: T1, rat APJ receptor (rat, UniProt Q9JHG3 1-377)
T1 sequence (looked up): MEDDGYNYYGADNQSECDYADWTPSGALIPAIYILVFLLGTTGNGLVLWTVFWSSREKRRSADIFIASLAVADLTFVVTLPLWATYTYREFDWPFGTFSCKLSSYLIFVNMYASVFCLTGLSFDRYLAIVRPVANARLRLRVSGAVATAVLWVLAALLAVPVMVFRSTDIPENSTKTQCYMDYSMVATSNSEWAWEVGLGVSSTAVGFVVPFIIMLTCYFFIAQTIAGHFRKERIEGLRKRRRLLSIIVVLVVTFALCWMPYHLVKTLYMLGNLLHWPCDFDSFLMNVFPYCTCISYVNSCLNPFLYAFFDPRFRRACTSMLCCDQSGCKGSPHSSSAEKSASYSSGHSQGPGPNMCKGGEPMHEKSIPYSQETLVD
Assay: cell-based or functional assay
Starred links: 1 amine or outer side, 2 acyl side, 3 side chain; linkers in the order of their positions; H or OH if unused. Non-standard residues stand in square brackets, D forms with d. Primed or numbered codes have the meaning given here. *: point of attachment. NPipG = 2-(piperidin-4-ylamino)acetic acid, O=C(CN(C1CCN([*:3])CC1)[*:1])[*:2]; AC4Abu = α-carboxy-4-aminobutyric acid, O=C(C(CCN[*:1])C(=O)[*:3])[*:2]; dBip = N[C@H](Cc1ccc(-c2ccccc2)cc1)C(=O)O; Oic = O=C(O)[C@@H]1C[C@@H]2CCCC[C@@H]2N1; Phe(4-Cl) = N[C@@H](Cc1ccc(Cl)cc1)C(=O)O; Phe(4-F) = N[C@@H](Cc1ccc(F)cc1)C(=O)O; Phe(4-I) = N[C@@H](Cc1ccc(I)cc1)C(=O)O; γGlu = O=C(O)[C@H](CCC(=O)[*:2])N[*:1]; d(β3hF) = N[C@@H](CC(=O)O)Cc1ccccc1; NMeR = CN[C@@H](CCCNC(=N)N)C(=O)O; Palmitoyl = CCCCCCCCCCCCCCCC(=O)*; hArg = N=C(N)NCCCC[C@H](N)C(=O)O; Cha = N[C@@H](CC1CCCCC1)C(=O)O; NMeL = CN[C@@H](CC(C)C)C(=O)O; αMeL = CC(C)C[C@](C)(N)C(=O)O; β3hP = O=C(O)C[C@@H]1CCCN1; Nle = CCCC[C@H](N)C(=O)O; Pip′ = not defined here; Hexanoyl = CCCCCC(=O)*; AEEA = NCCOCCOCC(=O)O; Aib = CC(C)(N)C(=O)O; BLeu = β-leucine
Threshold check on EC50 Rat APJ Receptor: strictly below 6 nM is true (1); on or above 6 nM is false (0).

binder | class.assignment
Hexanoyl-[AC4Abu][AEEA][AEEA][hArg][dR]Q[hArg]P[dR][NMeL]SHKG[Pip′][Phe(4-I)]P[dBip]-OH [SEQ ID NO: 563] | false (0)
XXXQRPRLSHKGPXPF ({TDA}[AC4Abu][AC4Abu][Aeea]QRP[NMeArg]LSHKGP[Nle]P[4-Cl-F]{COOH}) [SEQ ID NO: 462] | true (1)
Ac-RQRP[NMeR]LSHKGP[Nle]P[Phe(4-Cl)]-OH (SMILES CCCC[C@H](NC(=O)[C@@H]1CCCN1C(=O)CNC(=O)[C@H](CCCCN)NC(=O)[C@H](Cc1c[nH]cn1)NC(=O)[C@H](CO)NC(=O)[C@H](CC(C)C)NC(=O)[C@H](CCCNC(=N)N)N(C)C(=O)[C@@H]1CCCN1C(=O)[C@H](CCCNC(=N)N)NC(=O)[C@H](CCC(N)=O)NC(=O)[C@H](CCCNC(=N)N)NC(C)=O)C(=O)N1CCC[C@H]1C(=O)N[C@@H](Cc1ccc(Cl)cc1)C(=O)O) [SEQ ID NO: 65] | true (1)
Palmitoyl-[γGlu][AEEA][AEEA][dQ]RP[NMeR][αMeL]SH[Phe(4-F)]G[Oic][Nle][β3hP][Phe(4-Cl)]-OH [SEQ ID NO: 637] | false (0)
QRPRLSHKGPXPF ({Acetyl-NH}QrP[hArg][aMeLeu]SHKGP[Nle]P[4-Cl-F]{COOH}) [SEQ ID NO: 70] | false (0)

In plain terms, does XXXQRPRLSHKGPXPF ({Palm}[AC4Abu][Aeea][Aeea]QRP[NMeArg]LSHKGP[Nle]P[4-Cl-F]{COOH}) [SEQ ID NO: 593] come in under 6 nM for EC50 Rat APJ Receptor?
true (1)

In plain terms, does Palmitoyl-[γGlu][AEEA][AEEA][dQ]RP[NMeR][Cha][BLeu]HKG[Oic][Nle][β3hP][d(β3hF)]-OH [SEQ ID NO: 615] come in under 6 nM for EC50 Rat APJ Receptor?
false (0)

In plain terms, does XXXQRPRLSHKGPXPF ({hexanoyl}[AC4Abu][Aeea][Aeea]QRP[hArg][aMeLeu]SHKGP[Nle]P[4-Cl-F]{COOH}) [SEQ ID NO: 559] come in under 6 nM for EC50 Rat APJ Receptor?
false (0)

In plain terms, does QRPRLSHKGPXPF ({H2}[MerPr](10K mPEG acetamide)QR[aMePro][hArg][aMeLeu]SHKGP[Nle]P[4-Cl-F]{COOH}) [SEQ ID NO: 114] come in under 6 nM for EC50 Rat APJ Receptor?
true (1)

In plain terms, does Palmitoyl-[AC4Abu][AEEA][AEEA][dQ]RP[NPipG][Cha]SHKG[Pip′][Nle][Aib][Phe(4-Cl)]-OH [SEQ ID NO: 645] come in under 6 nM for EC50 Rat APJ Receptor?
true (1)

In plain terms, does Palmitoyl-[AC4Abu][AEEA][AEEA][dQ]RP[NMeR][Cha]SHKG[Pip′][Nle][d(β3hF)]-OH [SEQ ID NO: 574] come in under 6 nM for EC50 Rat APJ Receptor?
true (1)
